Kindly supply the reported log10(GI50) values for the records listed here.
- Test system: HL-60(TB)
- protocol_text: Growth inhibition of human HL-60(TB) cells incubated for 48 hrs by sulforhodamine B assay
- Type: functional
- assay_conditions: HL-60, 48 h
Heads up, the numbers here are log10 of GI50 in nM units.

# return recorded log10(GI50) for input COc1cc(C(=O)/C=C/c2cccc(Nc3ccnc4cc(Cl)ccc34)c2)cc(OC)c1OC 3.26

# return recorded log10(GI50) for input COc1cccc2c1C(=O)c1c(O)c3c(c(O)c1C2=O)C[C@@](O)(C(=O)CO)C[C@@H]3O[C@H]1C[C@H](N)[C@H](O)[C@H](C)O1 2.08

# return recorded log10(GI50) for input O=CN1N=C(c2ccc(Cl)cc2)CC1c1cccc(Nc2ccnc3cc(Cl)ccc23)c1 (stereo not given) 3.10

# return recorded log10(GI50) for input COc1ccc(C(=O)/C=C/c2cccc(Nc3ccnc4cc(Cl)ccc34)c2)cc1 3.47

# return recorded log10(GI50) for input COc1ccc(C2=NN(C=O)C(c3cccc(Nc4ccnc5cc(Cl)ccc45)c3)C2)cc1 (stereo not given) 3.31

###

- Test system: U-937
- protocol_text: Cytotoxicity against human U937 cells after 72 hrs by MTT assay
- Assay type: cell-based
- assay_conditions: u-937, 72 h
Kindly supply the reported LC50 values for the records listed here.
// units = µg/mL; emit number, no label

# return recorded LC50 for input CC(=O)N1N=C(c2ccc(Cl)cc2)CC1c1cccc(Nc2ccnc3cc(Cl)ccc23)c1 (stereo not drawn) 17

# return recorded LC50 for input COc1ccc(C2=NN(C=O)C(c3cccc(Nc4ccnc5cc(Cl)ccc45)c3)C2)cc1 (stereo not drawn) 0.3

# return recorded LC50 for input C[C@@H]1[C@H](O)[C@@H](C)/C=C/C=C/C=C/C=C/C=C/C=C/C=C/[C@H](O[C@@H]2O[C@H](C)[C@@H](O)[C@H](N)[C@@H]2O)C[C@@H]2O[C@](O)(C[C@@H](O)C[C@@H](O)[C@H](O)CC[C@@H](O)C[C@@H](O)CC(=O)O[C@H]1C)C[C@H](O)[C@H]2C(=O)O [AMPHOTERICIN B] 36

###

Kindly supply the reported inhibition of growth at 250 µg/mL values for the records listed here.
- Tested on: Candida albicans
- protocol_text: Growth inhibition of Candida albicans ATCC 10231 at 250 ug/ml incubated for 48 hrs under dark condition by broth microdilution method relative to control
- Type: functional
- assay_conditions: ATCC 10231, 48 h, read-out: GI
// units = %; emit number, no label

# return recorded inhibition of growth at 250 µg/mL for input COc1cc(C2=NN(C=O)C(c3cccc(Nc4ccnc5cc(Cl)ccc45)c3)C2)cc(OC)c1OC (centres undefined) 43.9

# return recorded inhibition of growth at 250 µg/mL for input Clc1cc(Cl)cc(N2N=C(c3ccccc3)CC2c2cccc(Nc3ccnc4cc(Cl)ccc34)c2)c1 (centres undefined) 11.2

# return recorded inhibition of growth at 250 µg/mL for input CC(=O)N1N=C(c2ccccc2)CC1c1cccc(Nc2ccnc3cc(Cl)ccc23)c1 (centres undefined) 53.3

# return recorded inhibition of growth at 250 µg/mL for input COc1cc(C2=NN(c3cc(Cl)cc(Cl)c3)C(c3cccc(Nc4ccnc5cc(Cl)ccc45)c3)C2)cc(OC)c1OC (centres undefined) 20.3

###

- Tested on: SK-MEL-28
- protocol_text: Growth inhibition of human SK-MEL-28 cells at 10 uM incubated for 48 hrs by sulforhodamine B assay
- Assay type: functional, cell-based
Activity calls are given as the source filed them. No cut-off for these calls is given here.
Answer with one of the outcomes given here: active, inactive

How did this test come out for Clc1ccc(C2=NN(c3ccc(Cl)cc3)C(c3cccc(Nc4ccnc5cc(Cl)ccc45)c3)C2)cc1 (stereo not given) ? inactive

How did this test come out for COc1ccc(C2=NN(c3ccc(Cl)cc3)C(c3cccc(Nc4ccnc5cc(Cl)ccc45)c3)C2)cc1 (stereo not given) ? inactive

How did this test come out for COc1cc(C2=NN(c3ccc(Cl)cc3)C(c3cccc(Nc4ccnc5cc(Cl)ccc45)c3)C2)cc(OC)c1OC (stereo not given) ? inactive

How did this test come out for O=CN1N=C(c2ccc(Cl)cc2)CC1c1cccc(Nc2ccnc3cc(Cl)ccc23)c1 (stereo not given) ? active

How did this test come out for COc1ccc(C2=NN(C=O)C(c3cccc(Nc4ccnc5cc(Cl)ccc45)c3)C2)cc1 (stereo not given) ? active

How did this test come out for COc1ccc(C2=NN(c3ccccc3)C(c3cccc(Nc4ccnc5cc(Cl)ccc45)c3)C2)cc1 (stereo not given) ? inactive

How did this test come out for COc1cc(C(=O)/C=C/c2cccc(Nc3ccnc4cc(Cl)ccc34)c2)cc(OC)c1OC ? active

How did this test come out for COc1ccc(C(=O)/C=C/c2cccc(Nc3ccnc4cc(Cl)ccc34)c2)cc1 ? active

How did this test come out for Clc1ccc(C2=NN(c3ccccc3)C(c3cccc(Nc4ccnc5cc(Cl)ccc45)c3)C2)cc1 (stereo not given) ? inactive

How did this test come out for Clc1ccc(C2=NN(c3cc(Cl)cc(Cl)c3)C(c3cccc(Nc4ccnc5cc(Cl)ccc45)c3)C2)cc1 (stereo not given) ? inactive

###

- Test system: Candida albicans
- protocol_text: Growth inhibition of Candida albicans ATCC 10231 at 125 ug/ml incubated for 48 hrs under dark condition by broth microdilution method relative to control
- Format: functional
- assay_conditions: ATCC 10231, 48 h, read-out: GI
Kindly supply the reported inhibition of growth at 125 µg/mL values for the records listed here.
// units = %; emit number, no label

Provide the reported inhibition of growth at 125 µg/mL (system: Candida albicans) for O=Cc1cccc(Nc2ccnc3cc(Cl)ccc23)c1 34.8

Provide the reported inhibition of growth at 125 µg/mL (system: Candida albicans) for O=C(/C=C/c1cccc(Nc2ccnc3cc(Cl)ccc23)c1)c1ccccc1 36.7

Provide the reported inhibition of growth at 125 µg/mL (system: Candida albicans) for COc1cc(C2=NN(C(C)=O)C(c3cccc(Nc4ccnc5cc(Cl)ccc45)c3)C2)cc(OC)c1OC (centres undefined) 37.3

Provide the reported inhibition of growth at 125 µg/mL (system: Candida albicans) for COc1ccc(C2=NN(c3ccc(Cl)cc3)C(c3cccc(Nc4ccnc5cc(Cl)ccc45)c3)C2)cc1 (centres undefined) 1.92

Provide the reported inhibition of growth at 125 µg/mL (system: Candida albicans) for CC(=O)N1N=C(c2ccc(Br)cc2)CC1c1cccc(Nc2ccnc3cc(Cl)ccc23)c1 (centres undefined) 27.9

Provide the reported inhibition of growth at 125 µg/mL (system: Candida albicans) for O=CN1N=C(c2ccc(Cl)cc2)CC1c1cccc(Nc2ccnc3cc(Cl)ccc23)c1 (centres undefined) 35.7

Provide the reported inhibition of growth at 125 µg/mL (system: Candida albicans) for COc1cc(C2=NN(c3cc(Cl)cc(Cl)c3)C(c3cccc(Nc4ccnc5cc(Cl)ccc45)c3)C2)cc(OC)c1OC (centres undefined) 10.6

Provide the reported inhibition of growth at 125 µg/mL (system: Candida albicans) for CC(=O)N1N=C(c2ccc(C)cc2)CC1c1cccc(Nc2ccnc3cc(Cl)ccc23)c1 (centres undefined) 46.2

Provide the reported inhibition of growth at 125 µg/mL (system: Candida albicans) for Clc1ccc2c(Nc3cccc(C4CC(c5ccccc5)=NN4c4ccccc4)c3)ccnc2c1 (centres undefined) 32.4

###

Kindly supply the reported GI50 values for the records listed here.
- Test system: SR
- protocol_text: Growth inhibition of human SR cells incubated for 48 hrs by sulforhodamine B assay
- Assay type: functional
// units = nM; emit number, no label

Provide the reported GI50 (system: SR) for COc1ccc(C(=O)/C=C/c2cccc(Nc3ccnc4cc(Cl)ccc34)c2)cc1 490

Provide the reported GI50 (system: SR) for COc1cccc2c1C(=O)c1c(O)c3c(c(O)c1C2=O)C[C@@](O)(C(=O)CO)C[C@@H]3O[C@H]1C[C@H](N)[C@H](O)[C@H](C)O1 [DOXORUBICIN] 30

Provide the reported GI50 (system: SR) for COc1cc(C(=O)/C=C/c2cccc(Nc3ccnc4cc(Cl)ccc34)c2)cc(OC)c1OC 320

Provide the reported GI50 (system: SR) for O=CN1N=C(c2ccc(Cl)cc2)CC1c1cccc(Nc2ccnc3cc(Cl)ccc23)c1 (stereo not given) 400

Provide the reported GI50 (system: SR) for COc1ccc(C2=NN(C=O)C(c3cccc(Nc4ccnc5cc(Cl)ccc45)c3)C2)cc1 (stereo not given) 580

###

- Tested on: RXF 393
- protocol_text: Growth inhibition of human RXF393 cells at 10 uM incubated for 48 hrs by sulforhodamine B assay
- Assay type: functional, cell-based
The source made the active and inactive calls. No cut-off for these calls is given here.
Answer with one of the outcomes given here: 1 (yes) = active, 0 (no) = inactive

How did this test come out for COc1ccc(C2=NN(c3ccc(Cl)cc3)C(c3cccc(Nc4ccnc5cc(Cl)ccc45)c3)C2)cc1 (stereo not given) ? 0 (no)

How did this test come out for O=CN1N=C(c2ccc(Cl)cc2)CC1c1cccc(Nc2ccnc3cc(Cl)ccc23)c1 (stereo not given) ? 1 (yes)

How did this test come out for COc1cc(C(=O)/C=C/c2cccc(Nc3ccnc4cc(Cl)ccc34)c2)cc(OC)c1OC ? 1 (yes)

How did this test come out for COc1ccc(C2=NN(c3ccccc3)C(c3cccc(Nc4ccnc5cc(Cl)ccc45)c3)C2)cc1 (stereo not given) ? 0 (no)

How did this test come out for Clc1ccc(C2=NN(c3cc(Cl)cc(Cl)c3)C(c3cccc(Nc4ccnc5cc(Cl)ccc45)c3)C2)cc1 (stereo not given) ? 0 (no)

How did this test come out for Clc1ccc(C2=NN(c3ccccc3)C(c3cccc(Nc4ccnc5cc(Cl)ccc45)c3)C2)cc1 (stereo not given) ? 0 (no)

How did this test come out for COc1ccc(C(=O)/C=C/c2cccc(Nc3ccnc4cc(Cl)ccc34)c2)cc1 ? 1 (yes)

How did this test come out for COc1cc(C2=NN(c3ccc(Cl)cc3)C(c3cccc(Nc4ccnc5cc(Cl)ccc45)c3)C2)cc(OC)c1OC (stereo not given) ? 0 (no)

How did this test come out for COc1ccc(C2=NN(C=O)C(c3cccc(Nc4ccnc5cc(Cl)ccc45)c3)C2)cc1 (stereo not given) ? 1 (yes)

How did this test come out for Clc1ccc(C2=NN(c3ccc(Cl)cc3)C(c3cccc(Nc4ccnc5cc(Cl)ccc45)c3)C2)cc1 (stereo not given) ? 0 (no)
